System: soybean (Glycine max L., var. Pella 86, SOY)
Test: Pre-emerge greenhouse test, crop damage rating
Type: in vivo
Conditions: 125 g ai/ha, 14 days after application, rating scale 0-100
Method: A standard greenhouse herbicide activity screening system was used to evaluate the herbicidal efficacy and crop safety of these test compounds. […] At 14 days after application of the test materials, phytotoxicity ratings were recorded. […]
property.measured: crop damage rating SOY
Would you mind answering with just the numeric figure?

Example results:
# value lookup — system soybean (Glycine max L., var. Pella 86, SOY), readout crop damage rating SOY, item CC(=O)Nc1ccc(Oc2cc(-n3c(=O)n4n(c3=S)CCCC4)c(F)cc2Cl)c(C(F)(F)F)c1 [Compound 8-16]
0

Another compound: Cn1nc(-c2cc(Oc3nc(F)c(F)cc3F)c(Cl)cc2F)c(Cl)c1C(F)(F)F [Compound 1-6]
0

Another compound: Cc1nn(-c2cc(Oc3ncccn3)c(Cl)cc2F)c(=O)n1C(F)F [Compound 3-1]
90

---
# value lookup — system soybean (Glycine max L., var. Pella 86, SOY), readout crop damage rating SOY, item Cn1nc(-c2cc(Oc3ncccc3C#N)c(Cl)cc2F)c(Cl)c1C(F)(F)F [Compound 1-3]
0

Another compound: COc1cc(OC)nc(Oc2cc(-n3nnn(CCCF)c3=O)c(F)cc2Cl)n1 [Compound 6-15]
0

Another compound: O=C1C2CCCCN2C(=O)N1c1cc(Oc2ncccc2C(F)(F)F)c(Cl)cc1F (centres unmarked) [Compound 8-4]
0

Another compound: O=c1n(-c2cc(Oc3ccc([N+](=O)[O-])cc3)c(Cl)cc2F)c(=S)n2n1CCCC2 [Compound 8-8]
0

Another compound: O=c1n(CCCF)nnn1-c1cc(Oc2ncccn2)c(Cl)cc1Cl [Compound 6-14]
10

Source of measurements: patent US6479435B1
